- Tested on: Klebsiella pneumonia
- test protocol: MIC against Gram-negative bacteria: Klebsiella pneumonia
- Assay type: cell-based
- condition details: K. pneumonia; 10 h cultivation at 37° C.; 5×10^5 CFU/mL
In this section we review reported MIC (μg/mL) K. pneumonia values for a set of substances.
Record the value in µg/mL, omitting the unit from your answer.

-- ask Report MIC (μg/mL) K. pneumonia, nothing else, for this substance: PRT842 (CGCSFHSHCRKRGPGFCDECQDWTWGEHCERCRPGSFGNATGSRGCRP; listed as Homo sapiens)
-- reply 25

###

- System: Serratia marcescens
- test protocol: MIC against Gram-negative bacteria: Serratia marcescens
- Type: cell-based
- condition details: 96-well plate, 5×10^5 CFU/mL, 37° C., 10 h
In this section we review reported MIC against S. marcescens values for a set of substances.
Record the value in µg/mL, omitting the unit from your answer.

[[record]]
substance = "PRT454 (LPDQCTPNPCDRKGTQACQDLMGNFFCLCKAGWGGRLCD; listed as Homo sapiens)"
system = "Serratia marcescens"
property = "MIC against S. marcescens"
obs_value = 12.5

[[record]]
substance = "PRT559 (CHCSAEGSLHAACDPRSGQCSCRPRVTGLRCDTCVPGAYNFPYCEA; listed as Homo sapiens)"
system = "Serratia marcescens"
property = "MIC against S. marcescens"
obs_value = 25

[[record]]
substance = "PRT468 (LCTPRCMNGGLCVTPGFCICPPGFYGVNCD; listed as Homo sapiens)"
system = "Serratia marcescens"
property = "MIC against S. marcescens"
obs_value = 50

[[record]]
substance = "PRT534 (CKCHKAGTVSGTGECRQGDGDCHCKSHVGGDSCDTCEDGYFALEKSNYFGCQG; listed as Homo sapiens)"
system = "Serratia marcescens"
property = "MIC against S. marcescens"
obs_value = 25


-- ask Report MIC against S. marcescens, nothing else, for this substance: PRT515 (CHCDPIGSLNEVCVKDEKHARRGLAPGSCHCKTGFGGVSCDRCARGYTGYPDCKA; listed as Homo sapiens)
-- reply 50

-- ask Report MIC against S. marcescens, nothing else, for this substance: PRT481 (EITACSSSPCFHDGTCVLDKAGSYKCACLAGYTGQRCE; listed as Homo sapiens)
-- reply 12.5

-- ask Report MIC against S. marcescens, nothing else, for this substance: PRT490 (CASAPCRNGGVCREGWNRFICDCIGTGFLGRVCE; listed as Homo sapiens)
-- reply 25

###

In this section we review reported MIC values for a set of substances.
- Tested on: Citrobacter diversus
- test protocol: MIC against Gram-negative bacteria: Citrobacter diversus
- Type: cell-based
- condition details: C. diversus; 10 h cultivation at 37° C.
Record the value in µg/mL, omitting the unit from your answer.

Completed entries (count: 10):
[[record]]
substance = "PRT1002 (FPDPCQNAQLCQNGGSCQALLPAPLGLPSSPSPLTPSFLCTCLPGFTGERCQ; listed as Homo sapiens)"
property = "MIC"
obs_value = 25

[[record]]
substance = "PRT929 (QIDECYSSPCLNDGRCIDLVNGYQCNCQPGTSGVNCE; listed as Homo sapiens)"
property = "MIC"
obs_value = 12.5

[[record]]
substance = "PRT897 (DPNPCLSTPCKNAGTCHVVDRRGVADYACSCALGFSGPLCL; listed as Homo sapiens)"
property = "MIC"
obs_value = 12.5

[[record]]
substance = "PRT917 (DVNECGQKPGLCRHGGTCHNEVGSYRCVCRATHTGPNCE; listed as Homo sapiens)"
property = "MIC"
obs_value = 12.5

[[record]]
substance = "PRT941 (EINECSSHPCLNEGTCVDGLGTYRCSCPLGYTGKNCQ; listed as Homo sapiens)"
property = "MIC"
obs_value = 12.5

[[record]]
substance = "PRT995 (ETNECASAPCLNHADCHDLLNGFQCICLPGFSGTRCE; listed as Homo sapiens)"
property = "MIC"
obs_value = 25

[[record]]
substance = "PRT926 (EINECQSNPCVNNGQCVDKVNRFQCLCPPGFTGPVCQ; listed as Homo sapiens)"
property = "MIC"
obs_value = 12.5

[[record]]
substance = "PRT924 (DVDECAMANSNPCEHAGKCVNTDGAFHCECLKGYAGPRCE; listed as Homo sapiens)"
property = "MIC"
obs_value = 12.5

[[record]]
substance = "PRT968 (LEDPCHSGPCAGRGVCQSSVVAGTARFSCRCPRGFRGPDCS; listed as Homo sapiens)"
property = "MIC"
obs_value = 12.5

[[record]]
substance = "PRT1025 (GHNYCSVNNGGCTHLCLATPGSRTCRCPDNTLGVDCI; listed as Homo sapiens)"
property = "MIC"
obs_value = 50


-- ask Report MIC, nothing else, for this substance: PRT1029 (PANPCEDGSHTCAPAGQARCVHHGGSTFSCACLPGYAGDGHQCT; listed as Homo sapiens)
-- reply 50

-- ask Report MIC, nothing else, for this substance: PRT1016 (RAGPCPPRGCSNGGTCQLMPEKDSTFHLCLCPPGFIGPDCE; listed as Homo sapiens)
-- reply 50

-- ask Report MIC, nothing else, for this substance: PRT925 (DINECHSDPCQNDATCLDKIGGFTCLCMPGFKGVHCE; listed as Homo sapiens)
-- reply 25

-- ask Report MIC, nothing else, for this substance: PRT937 (DIDECISKPCMNHGLCHNTQGSYMCECPPGFSGMDCE; listed as Homo sapiens)
-- reply 25

-- ask Report MIC, nothing else, for this substance: PRT1041 (VPLCAQECVHGRCVAPNQCQCVPGWRGDDCS; listed as Homo sapiens)
-- reply 12.5

-- ask Report MIC, nothing else, for this substance: PRT951 (WTDACLSHPCANGSTCTTVANQFSCKCLTGFTGQKCE; listed as Homo sapiens)
-- reply 25

-- ask Report MIC, nothing else, for this substance: PRT950 (CESGCASSPCQHGGSCHPQRQPPYYSCQCAPPFSGSRCE; listed as Homo sapiens)
-- reply 25

-- ask Report MIC, nothing else, for this substance: PRT979 (LPDPCLSSPCAHGARCSVGPDGRFLCSCPPGYQGRSCR; listed as Homo sapiens)
-- reply 100
